As shown below, each of these binders has a reported EC50 value.
measured target: T1, human CD33, full length, on cells (human, UniProt P20138 18-364)
T1 construct: NIH-3T3 cells stably overexpressing full-length human CD33, or AML lines U937 and Set2 with endogenous CD33; the cell line is named under assay; also called 3T3-huCD33; 3T3-CD33
T1 sequence (P20138 18-364): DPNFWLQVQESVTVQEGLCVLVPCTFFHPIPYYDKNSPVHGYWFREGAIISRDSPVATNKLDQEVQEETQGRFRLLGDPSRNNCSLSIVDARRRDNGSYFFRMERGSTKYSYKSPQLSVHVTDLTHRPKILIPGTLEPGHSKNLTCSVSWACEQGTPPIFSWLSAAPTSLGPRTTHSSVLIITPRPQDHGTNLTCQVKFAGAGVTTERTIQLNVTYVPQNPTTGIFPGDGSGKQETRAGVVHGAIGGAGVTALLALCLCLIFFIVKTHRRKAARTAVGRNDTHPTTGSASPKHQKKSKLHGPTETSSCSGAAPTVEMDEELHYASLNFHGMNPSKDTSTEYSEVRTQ
assay: flow cytometry, U937 cells
test readout: EC50 (nM)

* 1J19 (recombinant, human IgG1 constant region) (antibody, V domains shown) VH: QVQLQQSGPGLVKPSQTLSLTCAISGDSVSSNSAAWNWIRQSPSRGLEWLGRTYFRSKWYNVYAVSVKSRITINPDTSKNQFSLQLNSVTPEDTAVYYCASEGGSYYDHWGQGTLVTVSS VL: DIQMTQSPSSVSASVGDRVTITCRASQGISNWLTWYQQKPGKAPKLLIYAASSLQSGVPSRFSGSGSGTDFTLTISSLQPEDFATYYCQQADSFPFTFGPGTKVDIK | 2.16
* TDI-Y-007 (antibody, V domains shown, also called 4B2 (recombinant, human IgG1 constant region)) VH: EVHLLESGGGLVQPGGSLRLSCAASGFIFSSNAMSWVRQAPGKGLEWVSAISGYGGNTYYADSVKGRFTISRDNSKNTLYLQMNSLRAEDTAVYYCAKWGTYIVGATGDYWGQGTLVTVSS VL: QSALTQPPSASGSPGQSVTISCTGTSNDVGGYNYVSWYQQHPGKAPKLLIYEVSKRPSGVPDRFSGSQSGNTASLTVSGLQAEDEADYYCSSYAGSNNWVFGGGTKLTVL | 44.9
* TDI-Y-006 (antibody, V domains shown, also called 3P14 (recombinant, human IgG1 constant region)) VH: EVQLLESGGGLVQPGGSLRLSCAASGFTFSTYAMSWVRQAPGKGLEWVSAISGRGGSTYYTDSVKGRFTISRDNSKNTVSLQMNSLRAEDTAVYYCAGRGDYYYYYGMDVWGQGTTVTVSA VL: DIVMTQSPLSSPVTLGQPASFSCRSSQSLVYSDGNTYLSWLQQRPGQPPRLLIYKISNRFSGVPDRFSGSGAGTDFTLKISRVEAEDVGVYYCMQSTQFPHTFGQGTKLEIK | 8.5
* H195 (lintuzumab) (antibody, V domains shown) VH: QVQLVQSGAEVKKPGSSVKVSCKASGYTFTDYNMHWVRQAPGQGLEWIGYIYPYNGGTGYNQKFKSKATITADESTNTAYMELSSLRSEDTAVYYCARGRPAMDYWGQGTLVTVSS VL: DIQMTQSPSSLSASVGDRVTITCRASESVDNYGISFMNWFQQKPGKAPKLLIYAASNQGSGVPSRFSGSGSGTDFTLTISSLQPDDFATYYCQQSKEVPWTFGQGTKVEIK | 0.4

Origin of measurements: patent US20240262910A1
